- test_protocol: Determination of the log P values by HPLC (formic acid method)
- Type: physicochemical
- experimental_context: reversed-phase column (C 18), acidic range (pH 3.4), 55° C.
readout_kind: log P

Below are worked cases with known answers.
compound	log P
O=C(Nc1ccn(-c2c(F)cccc2F)n1)c1ccccc1[N+](=O)[O-]	2.20
O=C(Nc1ccn(-c2cc(F)c(F)cc2F)n1)c1ccccc1Br	3.99
O=C(Nc1ccn(-c2ncccc2F)n1)c1ccccc1Cl	2.05
Cc1nn(-c2ccccc2Cl)nc1N(C(=O)c1ccccc1C(F)(F)F)C(=O)c1ccccc1C(F)(F)F	4.54
O=C(Nc1ccn(-c2nc(F)c(F)cc2F)n1)c1ncccc1C(F)(F)F	3.88

A: O=C(Nc1ccn(-c2cc(F)c(F)cc2F)n1)c1ccccc1C(F)(F)F [Compound I-1-191]
B: Cn1ncc(Cl)c1C(=O)Nc1ccn(-c2ncc(F)cc2F)n1
## Input Kindly identify the item with the lower log P figure among these two: A and B In your reply, give the label of the chosen option.
## Output B

---

- test_protocol: Determination of the log P values by HPLC (formic acid method)
- Type: physicochemical
- experimental_context: reversed-phase column (C 18), acidic range (pH 3.4), 55° C.
readout_kind: log P

Some solved cases for reference:
molecule	result_value
O=C(Nc1ccn(-c2c(F)cccc2F)n1)c1cnccc1C(F)(F)F [Compound I-1-94]	2.16
Cc1cc(NC(=O)c2cnccc2C(F)(F)F)nn1-c1ccccc1Cl [Compound I-1-380]	2.09
O=C(Nc1ccn(-c2ncccc2Br)n1)c1cccnc1C(F)(F)F [Compound I-1-550]	2.34
O=C(Nc1ccn(-c2ccccc2Cl)n1)c1sccc1C(F)F [Compound I-1-374]	3.15
CCCc1c(Cl)c(C(=O)Nc2ccn(-c3ncc(F)cc3F)n2)nn1C [Compound I-1-532]	3.09
Cc1nn(C)c(Cl)c1C(=O)Nc1ccn(-c2ccccc2Cl)n1 [Compound I-1-48]	2.46
O=C(Nc1ccn(-c2cncc(F)n2)n1)c1cccnc1Br [Compound I-1-404]	3.19

a: O=C(Nc1ccn(-c2cccc(Cl)c2F)n1)c1ccccc1Cl [Compound I-1-559]
b: Cn1nc(C(F)F)c(C(=O)Nc2ccn(-c3ncc(F)cc3F)n2)c1F [Compound I-1-500]
## Input Which has the smaller recorded log P, a or b ? // output: label of the selected item
## Output b

---

- test_protocol: Determination of the log P values by HPLC (formic acid method)
- Type: physicochemical
- experimental_context: reversed-phase column (C 18), acidic range (pH 3.4), 55° C.
readout_kind: log P

Example compounds with recorded log P:
compound	log P
O=C(Nc1ccn(-c2ncc(F)cn2)n1)c1c(F)cccc1F [Compound I-1-602]	1.83
Cn1ncc(I)c1C(=O)Nc1ccn(-c2ncc(F)cc2F)n1 [Compound I-1-540]	2.20
O=C(Nc1ccn(-c2ccccc2Cl)n1)c1cccnc1Br [Compound I-1-358]	2.22

A: O=C(Nc1ccn(-c2cnc(Cl)cn2)n1)c1ccccc1I [Compound I-1-390]
B: Nc1cc(NC(=O)c2ccccc2Cl)nn1-c1ccccc1Cl [Compound I-1-361]
## Input Could you tell me which of A and B has the lower log P reading? Kindly give the label for the entry you pick.
## Output B

A: O=C(Nc1ccn(-c2ncc(F)cc2F)n1)c1ccccc1OC(F)(F)F [Compound I-1-463]
B: Cc1nn(C)cc1C(=O)Nc1ccn(-c2c(F)cccc2F)n1 [Compound I-1-107]
## Input Field: entry with larger log P (options A / B ). Please reply using the label of the selected record.
## Output A

I: N#Cc1ccccc1-n1ccc(NC(=O)c2ccccc2C(F)(F)F)n1 [Compound I-1-9]
II: CCc1nnccc1C(=O)Nc1ccn(-c2c(F)cccc2F)n1 [Compound I-1-98]
## Input Recorded log P values differ for I and II ; which one is higher? Identify your pick by its label.
## Output I
